- Experimental details: Determination of solubility in water
- Assay type: physicochemical
- Condition notes: water, 25 °C, thermodynamic from solid; 25±0.1° C., stirred overnight, UV-VIS
- Protocol: Determination of solubility in water was conducted substantially according to the method as described in Vougogiannopoulou, K. et al. (2008), J. Med. Chem., 51:6421-6431. […] Absorbance of the sample of the respective test compound was measured at 315-420 nm using a UV-VIS spectrophotometer (JASCO UV-Visible V570). For each test compound, a standard curve was generated by plotting concentrations of standard solutions and the corresponding absorbances. […]
Assay readout: solubility (µg/mL)

>>> observed_result("CO/N=C(\\C)c1ccc(Nc2c3ccccc3nc3occc23)cc1 [Compound 3, reference compound]")
8

A = CC(=O)c1ccc(Nc2c3ccccc3nc3occc23)cc1 [Compound 1, reference compound]
B = C/C(=N\O)c1ccc(Nc2c3ccccc3nc3occc23)cc1 [Compound 2, reference compound]
Of the two listed items, A and B , which carries the larger solubility figure? Give the chosen item's label as your response.
B
(B: 10 µg/mL, A: 6 µg/mL)
